The origin of these recorded values is PubChem BioAssay (NCI).

tested on: KM20L2 colon; test: NCI tumour cell line growth inhibition, 48 h
Recorded measurements of TGI, one per entry

Some compounds with recorded TGI:
>>> print(df.to_string())
                                   compound  property_name  observed_value
0  CC1=NN(C(=O)c2ccncc2)C(=O)C1N=Nc1ccc(F)cc1 (centres undefined)            TGI        > 100 µM
1  Cc1cccc(C)c1N1C(=O)C(=O)C(c2nc3ccccc3s2)/C(=N/NC(=O)NN)C1=O (centres undefined)            TGI        > 100 µM
2                      O=C(O)CCCCCCCCC(=O)O            TGI        > 500 µM

# context switch: different compound, same TGI
Retrieve TGI measured for CCOC(=O)C1(Cc2ccc3ccccc3c2)CCCCC(=O)N1 (centres undefined) and print it.
> 100 µM
